Provenance of the data: patent US20240376084A1

# Tgt: hemolysin alpha from Staphylococcus aureus (Staphylococcus aureus)
# Sequence (P09616 27-319 limits assumed): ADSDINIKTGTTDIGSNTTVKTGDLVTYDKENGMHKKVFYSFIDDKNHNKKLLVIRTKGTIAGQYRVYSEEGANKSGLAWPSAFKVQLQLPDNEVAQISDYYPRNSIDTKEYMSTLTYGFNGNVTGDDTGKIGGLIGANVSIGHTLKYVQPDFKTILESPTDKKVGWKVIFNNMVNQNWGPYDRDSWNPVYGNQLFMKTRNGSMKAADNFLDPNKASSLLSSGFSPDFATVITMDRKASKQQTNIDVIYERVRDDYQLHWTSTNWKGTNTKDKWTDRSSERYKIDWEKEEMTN
# Experiment Notes: cell-based
This listing pairs molecules with measured EC50.

>  <Molecule>
Cc1cc2[nH]c(=O)c(=O)[nH]c2cc1S(=O)(=O)Nc1ccc(-c2ccc3c(c2)ncn3C)c(Cl)c1

>  <EC50>
100 to 1000 nM

$$$$
>  <Molecule>
Cc1cc(NS(=O)(=O)c2cc3[nH]c(=O)c(=O)[nH]c3cc2C)ccc1Br [drawing 471 (R^2 = CH3)]

>  <EC50>
267 nM

$$$$
>  <Molecule>
Cc1cc2[nH]c(=O)c(=O)[nH]c2cc1S(=O)(=O)Nc1ccc(OC(F)(F)F)cn1

>  <EC50>
100 to 1000 nM

$$$$
>  <Molecule>
COc1ccc(-c2ccc(NS(=O)(=O)c3cc4[nH]c(=O)c(=O)[nH]c4cc3C)cc2Cl)cc1

>  <EC50>
< 30 nM

$$$$
